Cited source: paper PMC11320742

# assay-system: CYP2C19 (Homo sapiens)
# Sequence (P33261 whole entry): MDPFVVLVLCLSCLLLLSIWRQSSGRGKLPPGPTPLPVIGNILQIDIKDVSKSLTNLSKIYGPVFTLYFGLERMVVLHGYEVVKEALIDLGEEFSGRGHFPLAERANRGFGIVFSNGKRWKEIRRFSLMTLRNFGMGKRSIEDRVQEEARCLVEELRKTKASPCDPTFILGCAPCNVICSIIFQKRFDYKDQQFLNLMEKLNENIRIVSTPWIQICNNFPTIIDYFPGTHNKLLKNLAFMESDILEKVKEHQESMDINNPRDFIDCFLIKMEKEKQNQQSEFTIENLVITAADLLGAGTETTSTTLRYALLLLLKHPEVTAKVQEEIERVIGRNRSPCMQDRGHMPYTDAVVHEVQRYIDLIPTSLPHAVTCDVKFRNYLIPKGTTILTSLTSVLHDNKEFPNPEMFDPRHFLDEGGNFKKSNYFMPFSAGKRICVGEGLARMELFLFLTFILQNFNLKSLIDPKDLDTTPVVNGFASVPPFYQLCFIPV
# method-description: CYP inhibition
# Assay type: in vitro ADME
# applied-conditions: at 10 μM
quantity: inhibition at 10 µM (%)
// note: answer is a bare numeric in %

Req: // returns reported inhibition at 10 µM for input Cc1cc(-c2cccc(NS(C)(=O)=O)c2)cc2c1C(=O)N(C(C)C)C2
Resp: 51

====

# assay-system: CYP3A4 (Homo sapiens)
# method-description: CYP inhibition
# Format: in vitro ADME
# applied-conditions: at 10 μM
quantity: inhibition at 10 µM (%)
All answers are understood in %, so give the number only.

Req: Notebook: pull reported inhibition at 10 µM for CYP3A4 (Homo sapiens), entry Cc1cc(-c2cccc(NS(C)(=O)=O)c2)cc2c1C(=O)N(C(C)C)C2
Resp: 12

====

# assay-system: UniProtKB Q14833
pIC50: −log10 of the molar value.
quantity: pIC50

Req: What measured pIC50 goes with Cc1cc(-c2cccc(NS(C)(=O)=O)c2)cc2c1C(=O)N(C(C)C)C2 ?
Resp: < 4.63

====

# assay-system: UniProt:O00222
pIC50: −log10 of the molar value.
quantity: pIC50

Req: Fill in the blank: the reported pIC50 of Cc1cc(-c2cccc(NS(C)(=O)=O)c2)cc2c1C(=O)N(C(C)C)C2 [AZ12559322] is ____.
Resp: < 4.69

====

# assay-system: hERG channel (Homo sapiens, UniProt Q12809)
# Sequence (Q12809 whole entry): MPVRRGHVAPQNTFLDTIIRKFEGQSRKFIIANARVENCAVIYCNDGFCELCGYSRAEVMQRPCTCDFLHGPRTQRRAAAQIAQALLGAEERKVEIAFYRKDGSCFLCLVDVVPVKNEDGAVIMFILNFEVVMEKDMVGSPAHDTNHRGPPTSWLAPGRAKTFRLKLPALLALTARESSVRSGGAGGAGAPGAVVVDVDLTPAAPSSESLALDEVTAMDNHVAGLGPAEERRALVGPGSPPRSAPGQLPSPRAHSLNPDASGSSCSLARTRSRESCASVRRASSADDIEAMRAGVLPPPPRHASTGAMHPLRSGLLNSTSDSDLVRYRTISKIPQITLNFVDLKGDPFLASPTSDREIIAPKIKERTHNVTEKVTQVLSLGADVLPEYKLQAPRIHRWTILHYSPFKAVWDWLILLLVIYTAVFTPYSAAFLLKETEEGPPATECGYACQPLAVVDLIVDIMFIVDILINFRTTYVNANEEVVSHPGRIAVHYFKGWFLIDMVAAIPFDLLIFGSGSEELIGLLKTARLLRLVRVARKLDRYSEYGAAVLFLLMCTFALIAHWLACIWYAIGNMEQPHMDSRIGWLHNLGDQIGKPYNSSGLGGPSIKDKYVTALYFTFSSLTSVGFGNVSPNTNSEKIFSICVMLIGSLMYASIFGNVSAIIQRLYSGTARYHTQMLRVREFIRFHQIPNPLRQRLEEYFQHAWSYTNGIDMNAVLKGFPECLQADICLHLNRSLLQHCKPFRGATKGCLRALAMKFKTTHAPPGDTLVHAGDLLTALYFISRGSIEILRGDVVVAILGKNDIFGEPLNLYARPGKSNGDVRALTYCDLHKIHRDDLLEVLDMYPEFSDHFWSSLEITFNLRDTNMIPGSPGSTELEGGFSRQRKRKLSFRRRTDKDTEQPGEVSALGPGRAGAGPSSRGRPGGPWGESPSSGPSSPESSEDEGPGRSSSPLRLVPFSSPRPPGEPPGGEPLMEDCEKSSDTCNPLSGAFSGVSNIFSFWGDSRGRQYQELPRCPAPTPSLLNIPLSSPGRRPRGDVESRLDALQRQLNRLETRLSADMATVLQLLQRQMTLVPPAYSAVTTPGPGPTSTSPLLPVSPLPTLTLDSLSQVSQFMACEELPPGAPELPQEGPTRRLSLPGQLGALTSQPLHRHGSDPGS
quantity: pIC50
Worth noting: pIC50 values are minus log10 of concentrations stated in mol/L.

Req: Requested read-out: pIC50. Entry: Cc1cc(-c2cccc(NS(C)(=O)=O)c2)cc2c1C(=O)N(C(C)C)C2 [AZ12559322]
Resp: 5.03

====

# assay-system: CYP2D6 (Homo sapiens)
# Sequence (P10635 whole entry): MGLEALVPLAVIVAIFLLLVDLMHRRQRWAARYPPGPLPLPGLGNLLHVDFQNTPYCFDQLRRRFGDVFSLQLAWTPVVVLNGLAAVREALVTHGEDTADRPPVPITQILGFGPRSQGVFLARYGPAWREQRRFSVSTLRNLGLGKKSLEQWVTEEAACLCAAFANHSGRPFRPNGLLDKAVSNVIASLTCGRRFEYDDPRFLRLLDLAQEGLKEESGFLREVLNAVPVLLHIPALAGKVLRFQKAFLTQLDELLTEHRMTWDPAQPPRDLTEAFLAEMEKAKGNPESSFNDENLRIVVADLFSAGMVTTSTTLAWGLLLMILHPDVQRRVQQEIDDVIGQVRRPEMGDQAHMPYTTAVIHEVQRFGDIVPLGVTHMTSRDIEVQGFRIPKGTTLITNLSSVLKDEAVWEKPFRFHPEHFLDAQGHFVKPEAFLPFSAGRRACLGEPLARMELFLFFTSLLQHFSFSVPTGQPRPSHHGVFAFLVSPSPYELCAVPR
# method-description: CYP inhibition
# Format: in vitro ADME
# applied-conditions: at 10 μM
quantity: inhibition at 10 µM (%)
Give the value in % but do not write % after it.

Req: Would you kindly share the measured inhibition at 10 µM for Cc1cc(-c2cccc(NS(C)(=O)=O)c2)cc2c1C(=O)N(C(C)C)C2 [AZ12559322] ?
Resp: 11

====

Assay read-out pKd; system under study: mGluR2 (Homo sapiens).
Scale: pKd equals -log10([C]), with [C] in mol/L.

sample-smiles: Cc1cc(-c2cccc(NS(C)(=O)=O)c2)cc2c1C(=O)N(C(C)C)C2
assay-system: mGluR2 (Homo sapiens)
pKd: 7.96

Req: // query pKd value for entry Cc1cc(-c2cccc(NS(C)(=O)=O)c2)cc2c1C(=O)N(C1CCC1)C2
Resp: 8.33

====

# assay-system: mGluR3 (Homo sapiens)
quantity: IC50

Req: Please tell me: IC50 of Cc1cc(-c2cccc(NS(C)(=O)=O)c2)cc2c1C(=O)N(C(C)C)C2 , system mGluR3 (Homo sapiens)?
Resp: > 25 µM

====

# assay-system: mGluR2 (Rattus norvegicus)
# Sequence (P31421 19-872): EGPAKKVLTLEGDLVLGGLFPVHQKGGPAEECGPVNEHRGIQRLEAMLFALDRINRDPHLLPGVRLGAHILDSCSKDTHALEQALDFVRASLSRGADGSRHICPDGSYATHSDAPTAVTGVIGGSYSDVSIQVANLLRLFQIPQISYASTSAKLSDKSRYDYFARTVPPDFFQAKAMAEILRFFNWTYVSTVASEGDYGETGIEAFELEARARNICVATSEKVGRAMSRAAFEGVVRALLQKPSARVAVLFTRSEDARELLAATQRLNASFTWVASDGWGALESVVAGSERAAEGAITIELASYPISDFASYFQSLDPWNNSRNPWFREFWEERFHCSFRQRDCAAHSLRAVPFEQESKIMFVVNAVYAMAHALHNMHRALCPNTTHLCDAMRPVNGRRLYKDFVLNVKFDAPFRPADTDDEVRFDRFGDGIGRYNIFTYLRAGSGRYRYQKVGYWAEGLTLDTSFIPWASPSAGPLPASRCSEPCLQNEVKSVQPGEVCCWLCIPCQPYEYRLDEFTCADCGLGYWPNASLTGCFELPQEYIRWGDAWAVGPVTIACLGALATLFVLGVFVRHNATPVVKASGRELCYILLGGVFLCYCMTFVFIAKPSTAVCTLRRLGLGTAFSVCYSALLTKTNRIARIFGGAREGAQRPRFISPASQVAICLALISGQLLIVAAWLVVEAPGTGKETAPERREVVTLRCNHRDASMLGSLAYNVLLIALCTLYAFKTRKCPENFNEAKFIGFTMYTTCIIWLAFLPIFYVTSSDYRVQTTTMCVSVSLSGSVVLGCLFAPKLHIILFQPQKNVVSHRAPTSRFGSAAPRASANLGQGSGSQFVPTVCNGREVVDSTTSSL
quantity: Kd (nM)
Field format: number, assumed nM, no unit text.

Req: Give the measured Kd of Cc1cc(-c2cccc(NS(C)(=O)=O)c2)cc2c1C(=O)N(C(C)C)C2 [AZ12559322] .
Resp: 1.31

====

# assay-system: CYP3A4 (Homo sapiens, UniProt P08684)
# Sequence (P08684 whole entry): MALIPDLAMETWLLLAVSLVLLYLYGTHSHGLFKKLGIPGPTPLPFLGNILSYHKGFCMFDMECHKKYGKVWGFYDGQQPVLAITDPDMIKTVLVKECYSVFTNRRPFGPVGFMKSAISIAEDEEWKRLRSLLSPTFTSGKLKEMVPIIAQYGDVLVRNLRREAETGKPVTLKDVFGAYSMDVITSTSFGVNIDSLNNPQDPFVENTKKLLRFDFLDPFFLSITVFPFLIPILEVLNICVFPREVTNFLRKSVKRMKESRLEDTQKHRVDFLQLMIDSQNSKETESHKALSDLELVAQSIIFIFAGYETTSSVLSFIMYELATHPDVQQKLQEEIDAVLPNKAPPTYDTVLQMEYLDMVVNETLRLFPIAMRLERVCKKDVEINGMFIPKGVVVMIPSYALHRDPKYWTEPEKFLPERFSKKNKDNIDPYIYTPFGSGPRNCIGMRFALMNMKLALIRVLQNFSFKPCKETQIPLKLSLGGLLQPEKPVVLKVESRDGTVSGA
# method-description: CYP inhibition
# Format: in vitro ADME
# applied-conditions: at 1 μM
quantity: inhibition at 1 µM (%)
Could you give me the number in %? Just the number is fine.

Req: Report inhibition at 1 µM for Cc1cc(-c2cccc(NS(C)(=O)=O)c2)cc2c1C(=O)N(C(C)C)C2 [AZ12559322] please.
Resp: 0

====

# assay-system: CYP2C9 (Homo sapiens, UniProt P11712)
# Sequence (P11712 whole entry): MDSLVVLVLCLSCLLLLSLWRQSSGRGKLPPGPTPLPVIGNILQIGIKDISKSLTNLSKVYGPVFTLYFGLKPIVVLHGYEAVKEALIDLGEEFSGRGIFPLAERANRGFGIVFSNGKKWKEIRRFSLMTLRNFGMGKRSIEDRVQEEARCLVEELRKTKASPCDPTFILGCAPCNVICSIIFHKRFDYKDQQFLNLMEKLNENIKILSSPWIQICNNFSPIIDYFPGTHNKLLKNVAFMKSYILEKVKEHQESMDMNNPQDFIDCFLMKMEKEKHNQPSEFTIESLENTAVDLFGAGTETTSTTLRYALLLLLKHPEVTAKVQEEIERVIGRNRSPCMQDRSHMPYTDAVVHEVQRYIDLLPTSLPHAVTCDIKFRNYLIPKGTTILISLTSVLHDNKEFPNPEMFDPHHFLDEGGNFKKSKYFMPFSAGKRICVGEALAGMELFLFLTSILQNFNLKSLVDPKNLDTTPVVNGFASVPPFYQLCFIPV
# method-description: CYP inhibition
# Assay type: in vitro ADME
# applied-conditions: at 1 μM
quantity: inhibition at 1 µM (%)
Give the value in % but do not write % after it.

Req: Returns the measured inhibition at 1 µM for the input compound. Input: Cc1cc(-c2cccc(NS(C)(=O)=O)c2)cc2c1C(=O)N(C(C)C)C2
Resp: 8

====

# assay-system: mGluR2 (Homo sapiens)
Below, each of the compounds is paired with its reported Ki value.
Respond numerically; units are nM and should not be typed.

Solved entries (count: 2):
sample-smiles: Cc1cc(-c2cccc(NS(C)(=O)=O)c2)cc2c1C(=O)N([C@@H](C)C(F)(F)F)C2
result-units: nM
Ki: 0.71

sample-smiles: Cc1cc(-c2cccc(NS(C)(=O)=O)c2)cc2c1C(=O)N(C(C)C)C2
result-units: nM
Ki: 2.68

Turning now to a further record.
Req: Using the record for Cc1cc(-c2cccc(NS(C)(=O)=O)c2)cc2c1C(=O)N(C1CCC1)C2 , report its Ki.
Resp: 2.02

====

# assay-system: mGluR6 (Homo sapiens, UniProt O15303)
# Sequence (O15303 25-877): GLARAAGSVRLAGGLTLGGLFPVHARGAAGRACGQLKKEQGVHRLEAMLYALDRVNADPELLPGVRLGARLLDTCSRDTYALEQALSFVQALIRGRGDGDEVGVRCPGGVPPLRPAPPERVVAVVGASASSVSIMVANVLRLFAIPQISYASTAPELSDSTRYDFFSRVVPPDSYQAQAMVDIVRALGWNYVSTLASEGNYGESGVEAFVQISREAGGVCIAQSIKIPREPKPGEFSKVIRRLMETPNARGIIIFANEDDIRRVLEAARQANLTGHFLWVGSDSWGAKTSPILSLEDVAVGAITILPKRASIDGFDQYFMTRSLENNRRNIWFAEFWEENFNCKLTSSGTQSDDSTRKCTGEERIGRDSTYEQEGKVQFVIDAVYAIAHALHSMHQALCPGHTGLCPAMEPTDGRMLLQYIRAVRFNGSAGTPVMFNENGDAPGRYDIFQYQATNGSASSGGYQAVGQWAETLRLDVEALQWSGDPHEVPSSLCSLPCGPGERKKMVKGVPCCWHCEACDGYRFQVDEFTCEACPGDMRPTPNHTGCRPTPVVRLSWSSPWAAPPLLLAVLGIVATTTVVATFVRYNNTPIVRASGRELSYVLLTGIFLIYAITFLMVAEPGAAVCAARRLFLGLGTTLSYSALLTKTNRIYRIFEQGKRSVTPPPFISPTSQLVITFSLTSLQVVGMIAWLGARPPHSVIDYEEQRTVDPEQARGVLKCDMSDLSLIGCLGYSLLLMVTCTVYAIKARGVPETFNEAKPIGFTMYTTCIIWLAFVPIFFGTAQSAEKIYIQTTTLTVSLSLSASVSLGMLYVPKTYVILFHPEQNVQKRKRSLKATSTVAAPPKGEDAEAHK
quantity: IC50

Req: Given Cc1cc(-c2cccc(NS(C)(=O)=O)c2)cc2c1C(=O)N(C(C)C)C2 , state its recorded IC50.
Resp: > 30 µM
